- system.tested: Proteasome Macropain subunit MB1 (Homo sapiens)
- Sequence (P28074 whole entry): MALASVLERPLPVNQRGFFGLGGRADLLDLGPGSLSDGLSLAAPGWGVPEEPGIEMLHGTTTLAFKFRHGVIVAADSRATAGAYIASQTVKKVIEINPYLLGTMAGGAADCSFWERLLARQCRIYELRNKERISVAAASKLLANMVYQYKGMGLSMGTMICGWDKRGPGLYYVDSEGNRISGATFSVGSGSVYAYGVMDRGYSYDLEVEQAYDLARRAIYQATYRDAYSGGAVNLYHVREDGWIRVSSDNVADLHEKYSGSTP
- test.method.notes: Inhibition of chymotrypsin like activity of human 20S proteasome using Suc-Leu-Leu-Val-Tyr-AMC as substrate preincubated for 10 mins followed by substrate addition measured after 1 hr by spectrofluorimetric analysis
- experimental.context: read-out: IC50
pIC50: −log10 of the molar value.
measured.parameter: pIC50

compound="Cc1ccc(C[C@H](NC(=O)[C@H](CC(C)C)NC(=O)OC(C)(C)C)B2OC3C[C@@H]4C[C@@H](C4(C)C)[C@]3(C)O2)cc1 (stereo partly specified)" measured_parameter=pIC50 value_measured=6.33
compound="CC(=O)N[C@@H](Cc1ccccc1)C(=O)N[C@@H](Cc1ccc(C)cc1)B1OC2C[C@@H]3C[C@@H](C3(C)C)[C@]2(C)O1 (stereo partly specified)" measured_parameter=pIC50 value_measured=8.56
compound="CC(C)C[C@H](NC(=O)[C@@H](NC(=O)c1cccc2c1CCCC2)C(C)C)B1OC2C[C@@H]3C[C@@H](C3(C)C)[C@]2(C)O1 (stereo partly specified)" measured_parameter=pIC50 value_measured=8.16
compound="CC(C)(C)OC(=O)N[C@@H](Cc1ccc(O)cc1)C(=O)N[C@@H](Cc1ccccc1)B1OC2C[C@@H]3C[C@@H](C3(C)C)[C@]2(C)O1 (stereo partly specified)" measured_parameter=pIC50 value_measured=6.94

1 = Cc1ccc(C[C@H](NC(=O)[C@H](Cc2ccccc2)NC(=O)[C@H]2CCCc3ccccc32)B2OC3C[C@@H]4C[C@@H](C4(C)C)[C@]3(C)O2)cc1 (stereo partly specified)
2 = CC(C)C[C@H](NC(=O)[C@H](Cc1cc(C(F)(F)F)cc(C(F)(F)F)c1)NC(=O)c1cc(Cl)ccc1Cl)B(O)O
INPUT: Among 1 and 2 , which shows a numerically higher pIC50 result? Identify your selection by its label.
OUTPUT: 1
